Data provenance is patent US20260092083A1.

Listing of entries alongside the reported log10 MIC.
# System: A. baumannii JMI #1186154
On a log10 scale: recorded MIC, unit µg/mL.

Some solved entries appear below for comparison.
>  <compound>
CNC(CC(C)C)C(=O)NC1C(=O)NC(CC(N)=O)C(=O)NC2C(=O)NC3C(=O)NC(C(=O)N[C@H](C(=O)O)c4cc(O)c(CNCCCCNC(=O)c5ccc(O)c(O)c5Cl)c(O)c4-c4cc3ccc4O)C(O)c3ccc(c(Cl)c3)Oc3cc2cc(c3OC2OC(CO)C(O)C(O)C2OC2CC(C)(N)C(O)C(C)O2)Oc2ccc(cc2Cl)C1O (stereo partly drawn)

>  <observed-measurement>
0.90

$$$$
>  <compound>
CNC(CC(C)C)C(=O)N[C@H]1C(=O)N[C@@H](CC(N)=O)C(=O)N[C@H]2C(=O)N[C@H]3C(=O)N[C@H](C(=O)N[C@@H](C(=O)NCCOCCNC(=O)c4ccc(O)c(O)c4Cl)c4cc(O)cc(O)c4-c4cc3ccc4O)[C@H](O)c3ccc(c(Cl)c3)Oc3cc2cc(c3OC2O[C@H](CO)C(O)C(O)[C@H]2O[C@H]2CC(C)(N)[C@H](O)C(C)O2)Oc2ccc(cc2Cl)[C@H]1O (stereo in doubt)

>  <observed-measurement>
0.30

$$$$
>  <compound>
CN[C@H](CC(C)C)C(=O)N[C@H]1C(=O)N[C@@H](CC(N)=O)C(=O)N[C@H]2C(=O)N[C@H]3C(=O)N[C@H](C(=O)N[C@H](C(=O)NCCCCCNC(=O)c4ccc(O)c(O)c4Cl)c4cc(O)cc(O)c4-c4cc3ccc4O)[C@H](O)c3ccc(c(Cl)c3)Oc3cc2cc(c3O[C@@H]2O[C@H](CO)C(O)C(O)[C@H]2O[C@H]2CC(C)(N)[C@H](O)[C@H](C)O2)Oc2ccc(cc2Cl)[C@H]1O (stereo partly drawn)

>  <observed-measurement>
0.60

$$$$

Q) Give its log10 MIC value. Item: CNC(CC(C)C)C(=O)NC1C(=O)NC(CC(N)=O)C(=O)NC2C(=O)NC3C(=O)NC(C(=O)N[C@H](C(=O)NCCCN4C(=O)c5cc(O)c(O)cc5C4=O)c4cc(O)cc(O)c4-c4cc3ccc4O)C(O)c3ccc(c(Cl)c3)Oc3cc2cc(c3OC2OC(CO)C(O)C(O)C2OC2CC(C)(N)C(O)C(C)O2)Oc2ccc(cc2Cl)C1O (stereo partly drawn)
A) 1.51

Q) Give its log10 MIC value. Item: CN[C@H](CC(C)C)C(=O)N[C@H]1C(=O)N[C@@H](CC(N)=O)C(=O)N[C@H]2C(=O)N[C@H]3C(=O)N[C@H](C(=O)N[C@H](C(=O)NCCCNC(=O)c4ccc(O)c(O)c4Cl)c4cc(O)cc(O)c4-c4cc3ccc4O)[C@H](O)c3ccc(c(Cl)c3)Oc3cc2cc(c3O[C@@H]2O[C@H](CO)C(O)C(O)[C@H]2O[C@H]2CC(C)(N)[C@H](O)[C@H](C)O2)Oc2ccc(cc2Cl)[C@H]1O (stereo partly drawn)
A) 0.00

Q) Give its log10 MIC value. Item: CN[C@H](CC(C)C)C(=O)N[C@H]1C(=O)N[C@@H](CC(N)=O)C(=O)N[C@H]2C(=O)N[C@H]3C(=O)N[C@H](C(=O)N[C@H](C(=O)NCCCCNS(=O)(=O)c4ccc(O)c(O)c4)c4cc(O)cc(O)c4-c4cc3ccc4O)[C@H](O)c3ccc(c(Cl)c3)Oc3cc2cc(c3O[C@@H]2O[C@H](CO)C(O)C(O)[C@H]2O[C@H]2CC(C)(N)[C@H](O)[C@H](C)O2)Oc2ccc(cc2Cl)[C@H]1O (stereo partly drawn)
A) 0.30
